System: Mus musculus
Assay: Neurotoxicity in mouse assessed as motor impairment at 300 mg/kg, ip after 0.5 hrs by rotarod test
Format: toxicity, organism-based
Set-up: dose 300 mg/kg, route intraperitoneal
Settings: in vivo
Measurement name: Activity

Worked set:
Compound	Measured value
CCCC(CCC)C(=O)ON=C(Cn1ccnc1)c1ccc2ccccc2c1.Cl (mixture of isomers)	Non-toxic
O=C(O/N=C(\Cn1ccnc1)c1ccc2ccccc2c1)c1cccc(Cl)c1	Non-toxic
COc1ccccc1C(=O)O/N=C(\Cn1ccnc1)c1ccc2ccccc2c1	Non-toxic
CCCC(=O)O/N=C(\Cn1ccnc1)c1ccc2ccccc2c1.Cl	Toxic

Now consider the entry below.
The recorded Activity for entry COc1ccc(C(=O)O/N=C(\Cn2ccnc2)c2ccc3ccccc3c2)cc1 equals Non-toxic

---

System: Mus musculus
Experiment: Anticonvulsant activity in mouse assessed as protection against maximal electroshock-induced seizures at 30 mg/kg, ip after 4 hrs
Assay type: functional, organism-based
Design: dose 30 mg/kg
Active and inactive are the calls of the source. No cut-off for these calls is given here.
Bench note: report the call from t for active, f for inactive

Compound	Target of assay	Assigned label
CCCCCC(=O)O/N=C(\Cn1ccnc1)c1ccc2ccccc2c1.Cl	Mus musculus	f
NC(=O)N1c2ccccc2C=Cc2ccccc21 [CARBAMAZEPINE]	Mus musculus	f
Cl.O=C(ON=C(Cn1ccnc1)c1ccc2ccccc2c1)C1CCCCC1 (mixture of isomers)	Mus musculus	f

Call for entry CCCC(CCC)C(=O)[O-].[Na+] [VALPROATE SODIUM] :
f

Call for entry O=C1NC(=O)C(c2ccccc2)(c2ccccc2)N1 [PHENYTOIN] :
t

---

Test system: Mus musculus
Test: Anticonvulsant activity in mouse assessed as protection against subcutaneous pentylenetetrazole-induced seizures at 30 mg/kg, ip after 4 hrs
Format: functional, organism-based
Design: dose 30 mg/kg
Calls of active or inactive are those of the source. The rule behind the calls is not given here.
Bench note: report the call from active, inactive

Please review the following examples before continuing.
Molecule	Assigned label
Cl.O=C(/C=C/c1ccccc1)O/N=C(\Cn1ccnc1)c1ccc2ccccc2c1	inactive
CCCCCC(=O)O/N=C(\Cn1ccnc1)c1ccc2ccccc2c1.Cl	inactive
O=C(CCC(=O)c1ccccc1)O/N=C(\Cn1ccnc1)c1ccc2ccccc2c1	inactive
O=C(O/N=C(\Cn1ccnc1)c1ccc2ccccc2c1)c1ccccc1	inactive

Call for entry Cl.O=C(O/N=C(\Cn1ccnc1)c1ccc2ccccc2c1)c1ccc(-c2ccccc2)cc1 :
inactive

---

Tested on: Mus musculus
Test: Anticonvulsant activity in mouse assessed as protection against maximal electroshock-induced seizures at 300 mg/kg, ip after 4 hrs
Type: functional, organism-based
Parameters: dose 300 mg/kg
The source made the active and inactive calls. The calls are words filed in the database; no cut-off is given here.
Bench note: report the call from 1.0 for active, 0.0 for inactive

Please review the following examples before continuing.
Compound	Assigned label
NC(=O)N1c2ccccc2C=Cc2ccccc21 [CARBAMAZEPINE]	1.0
Cl.O=C(ON=C(Cn1ccnc1)c1ccc2ccccc2c1)C1CCCCC1 (mixture of isomers)	0.0
C/C=C(\C)C(=O)O/N=C(\Cn1ccnc1)c1ccc2ccccc2c1.Cl	0.0
Cc1ccc(C(=O)O/N=C(\Cn2ccnc2)c2ccc3ccccc3c2)cc1	0.0
O=C(O/N=C(\Cn1ccnc1)c1ccc2ccccc2c1)c1ccc(Cl)cc1	0.0
CCCC(=O)O/N=C(\Cn1ccnc1)c1ccc2ccccc2c1.Cl	1.0
COc1ccc(C(=O)O/N=C(\Cn2ccnc2)c2ccc3ccccc3c2)cc1	0.0
CCCCC(=O)O/N=C(\Cn1ccnc1)c1ccc2ccccc2c1.Cl	0.0
CCCC(CCC)C(=O)ON=C(Cn1ccnc1)c1ccc2ccccc2c1.Cl (mixture of isomers)	1.0
Cc1cccc(C(=O)O/N=C(\Cn2ccnc2)c2ccc3ccccc3c2)c1	0.0

Call for entry Cc1ccccc1C(=O)O/N=C(\Cn1ccnc1)c1ccc2ccccc2c1 :
1.0

Call for entry Cl.O=C(O/N=C(\Cn1ccnc1)c1ccc2ccccc2c1)c1ccc(-c2ccccc2)cc1 :
1.0

---

System: Mus musculus
Assay: Anticonvulsant activity in mouse assessed as protection against maximal electroshock-induced seizures at 30 mg/kg, ip after 4 hrs
Type: functional, organism-based
Parameters: dose 30 mg/kg
The source made the active and inactive calls. The calls are words filed in the database; no cut-off is given here.
Bench note: report the call from 1 = active, -1 = inactive

Molecule	Assigned label
CCC(=O)O/N=C(\Cn1ccnc1)c1ccc2ccccc2c1.Cl	-1
CCCCC(=O)O/N=C(\Cn1ccnc1)c1ccc2ccccc2c1.Cl	-1

Call for entry O=C(O/N=C(\Cn1ccnc1)c1ccc2ccccc2c1)c1ccc(Cl)cc1 :
-1

Call for entry COc1ccccc1C(=O)O/N=C(\Cn1ccnc1)c1ccc2ccccc2c1 :
1

Call for entry C/C=C(\C)C(=O)O/N=C(\Cn1ccnc1)c1ccc2ccccc2c1.Cl :
-1

---

Tested on: Mus musculus
Experiment: Anticonvulsant activity in mouse assessed as protection against subcutaneous pentylenetetrazole-induced seizures at 30 mg/kg, ip after 4 hrs
Type: functional, organism-based
Design: dose 30 mg/kg
Active and inactive are the calls of the source. No cut-off for these calls is given here.
Bench note: report the call from YES for active, NO for inactive

Molecule	Assigned label
O=C(O/N=C(\Cn1ccnc1)c1ccc2ccccc2c1)c1cccc(Cl)c1	NO

Call for entry CCC(=O)O/N=C(\Cn1ccnc1)c1ccc2ccccc2c1.Cl :
NO

Call for entry O=C(O/N=C(\Cn1ccnc1)c1ccc2ccccc2c1)c1ccc(Cl)cc1 :
YES

---

Tested on: Mus musculus
Test: Anticonvulsant activity in mouse assessed as protection against maximal electroshock-induced seizures at 30 mg/kg, ip after 4 hrs
Type: functional, organism-based
Design: dose 30 mg/kg
The source made the active and inactive calls. No cut-off for these calls is given here.
Bench note: report the call from 1 (active), -1 (inactive)

Molecule	Assigned label
Cl.O=C(/C=C/c1ccccc1)O/N=C(\Cn1ccnc1)c1ccc2ccccc2c1	-1
O=C(O/N=C(\Cn1ccnc1)c1ccc2ccccc2c1)c1cccc([N+](=O)[O-])c1	-1
Cl.O=C(O/N=C(\Cn1ccnc1)c1ccc2ccccc2c1)c1ccc(-c2ccccc2)cc1	-1
CCCC(CCC)C(=O)ON=C(Cn1ccnc1)c1ccc2ccccc2c1.Cl (mixture of isomers)	-1
O=C(O/N=C(\Cn1ccnc1)c1ccc2ccccc2c1)c1ccccc1	1

Call for entry CCCC(=O)O/N=C(\Cn1ccnc1)c1ccc2ccccc2c1.Cl :
-1

Call for entry COc1ccc(C(=O)O/N=C(\Cn2ccnc2)c2ccc3ccccc3c2)cc1 :
-1

Call for entry O=C(O/N=C(\Cn1ccnc1)c1ccc2ccccc2c1)c1ccccc1Cl :
-1
